Species on record: Homo sapiens
TEST_DESCRIPTION: Selectivity index, ratio of IC50 for BRD4 BD1 (unknown origin) to IC50 of BRD4 BD2 (unknown origin)
READOUT_LABEL: Ratio IC50
Please give the numeric answer without any surrounding text.

Answered cases to consult:
CCS(=O)(=O)Nc1ccc(Oc2ccc(F)cc2F)c(-c2cn(C)c(=O)c3cc(-c4cc(C)c(CCCO)c(C)c4)oc23)c1 : 1.47
Cc1cc(-c2cc3c(=O)n(C)cc(-c4cc(NC(=O)C5CC5)ccc4Oc4ccc(F)cc4F)c3o2)cc(C)c1OCCO : 2.12

Now turn to the next molecule.
Param item = `CCS(=O)(=O)Nc1ccc(Oc2c(OC)cccc2OC)c(-c2cn(C)c(=O)c3cc(-c4cc(C)c(OCCO)c(C)c4)oc23)c1` ; retrieve measured Ratio IC50. 4.9

###

TEST_DESCRIPTION: Metabolic stability in rat liver microsomes assessed as half life at 1 uM measured up to 60 mins in presence of NADPH by HPLC-MS/MS analysis
Assay type: ADME, Microsome
READOUT_LABEL: half-life at 1 µM (min)
# output: bare number, implied unit min

O=C(c1ccc(F)cc1)C1CCN(CCn2c(=O)[nH]c3ccccc3c2=O)CC1 : 18.9

Now turn to the next compound.
Param item = `Cc1cc(F)cc(C)c1Oc1ccc(C(C)(C)O)cc1-c1cn(C)c(=O)c2cc(-c3cnc(C4CCCC4)[nH]3)oc12` ; retrieve measured half-life at 1 µM. 58.3

###

SYSTEM_NAME: Bromodomain-containing protein 4 (Homo sapiens)
TEST_DESCRIPTION: Binding affinity to His6-fused BRD4 BD1 (unknown origin) assessed as dissociation constant in PBS incubated for 1 hrs by biolayer interferometry analysis
READOUT_LABEL: Kd (µM)
# output: bare number, implied unit µM

Param item = `Cc1cc(F)cc(C)c1Oc1ccc(C(C)(C)O)cc1-c1cn(C)c(=O)c2cc(-c3cnc(C4CCCCC4)[nH]3)oc12` ; retrieve measured Kd. 4.96

###

SYSTEM_NAME: Bromodomain testis-specific protein (Homo sapiens, UniProt Q58F21)
TEST_DESCRIPTION: Binding affinity to His6-fused BRDT BD2 (unknown origin) assessed as change in melting temperature at 100 uM incubated for 30 mins by thermal shift assay
Readings of ΔTm for the listed molecules
# output: bare number, implied unit °C

Answered cases to consult:
Cc1cc(F)cc(C)c1Oc1ccc(C(C)(C)O)cc1-c1cn(C)c(=O)c2cc(-c3cnc(C4CCC4)[nH]3)oc12 : 14.5
Cc1cc(F)cc(C)c1Oc1ccc(C(C)(C)O)cc1-c1cn(C)c(=O)c2cc(-c3cnc(C4CC4)[nH]3)oc12 : 15
Cc1cc(F)cc(C)c1Oc1ccc(C(C)(C)O)cc1-c1cn(C)c(=O)c2cc(-c3cnc(C4CCCC4)[nH]3)oc12 : 13.2

Param item = `Cc1cc(F)cc(C)c1Oc1ccc(C(C)(C)O)cc1-c1cn(C)c(=O)c2cc(-c3cnc(C4CCCCC4)[nH]3)oc12` ; retrieve measured ΔTm. 11

###

Readings of pIC50 for the listed compounds
SYSTEM_NAME: Bromodomain-containing protein 4 (Homo sapiens, UniProt O60885)
TEST_DESCRIPTION: Inhibition of C-terminal His6-tagged BRD4 BD2 (unknown origin) using H-YSGRGK(Ac)GGK(Ac)GLGK(Ac)-GGAK(Ac)RHRK-Biotin-OH as substrate incubated for 1 hrs by HTRF assay
Just so you know, pIC50 here is -log10 of the concentration in molar units; reply with that number alone.

CCS(=O)(=O)Nc1ccc(Oc2ccc(F)cc2F)c(-c2cn(C)c(=O)c3cc(-c4cnc(C5CCCC5)[nH]4)oc23)c1 : 9.04
Cc1cc(F)cc(C)c1Oc1ccc(C(C)(C)O)cc1-c1cn(C)c(=O)c2cc(-c3cnc(C4CCOC4)[nH]3)oc12 (centres undefined) : 9.22
CCS(=O)(=O)Cc1ccc(Oc2ccc(F)cc2F)c(-c2cn(C)c(=O)c3cc(-c4cc(C)c(OCCO)c(C)c4)oc23)c1 : 9.26

Param item = `Cc1cc(-c2cc3c(=O)n(C)cc(-c4cc(NC(=O)C(C)C)ccc4Oc4ccc(F)cc4F)c3o2)cc(C)c1OCCO` ; retrieve measured pIC50. 8.72

Reference source for all entries: ChEMBL document CHEMBL5154816
